The measured values listed here are drawn from patent US9796711B2.

Target: ΔF508-CFTR (Homo sapiens, UniProt P13569, DEL508-508)
Construct: host or cells: CFBE41o-, doxycycline-inducible
Sequence (P13569 with tags, fused parts or gaps DEL508-508): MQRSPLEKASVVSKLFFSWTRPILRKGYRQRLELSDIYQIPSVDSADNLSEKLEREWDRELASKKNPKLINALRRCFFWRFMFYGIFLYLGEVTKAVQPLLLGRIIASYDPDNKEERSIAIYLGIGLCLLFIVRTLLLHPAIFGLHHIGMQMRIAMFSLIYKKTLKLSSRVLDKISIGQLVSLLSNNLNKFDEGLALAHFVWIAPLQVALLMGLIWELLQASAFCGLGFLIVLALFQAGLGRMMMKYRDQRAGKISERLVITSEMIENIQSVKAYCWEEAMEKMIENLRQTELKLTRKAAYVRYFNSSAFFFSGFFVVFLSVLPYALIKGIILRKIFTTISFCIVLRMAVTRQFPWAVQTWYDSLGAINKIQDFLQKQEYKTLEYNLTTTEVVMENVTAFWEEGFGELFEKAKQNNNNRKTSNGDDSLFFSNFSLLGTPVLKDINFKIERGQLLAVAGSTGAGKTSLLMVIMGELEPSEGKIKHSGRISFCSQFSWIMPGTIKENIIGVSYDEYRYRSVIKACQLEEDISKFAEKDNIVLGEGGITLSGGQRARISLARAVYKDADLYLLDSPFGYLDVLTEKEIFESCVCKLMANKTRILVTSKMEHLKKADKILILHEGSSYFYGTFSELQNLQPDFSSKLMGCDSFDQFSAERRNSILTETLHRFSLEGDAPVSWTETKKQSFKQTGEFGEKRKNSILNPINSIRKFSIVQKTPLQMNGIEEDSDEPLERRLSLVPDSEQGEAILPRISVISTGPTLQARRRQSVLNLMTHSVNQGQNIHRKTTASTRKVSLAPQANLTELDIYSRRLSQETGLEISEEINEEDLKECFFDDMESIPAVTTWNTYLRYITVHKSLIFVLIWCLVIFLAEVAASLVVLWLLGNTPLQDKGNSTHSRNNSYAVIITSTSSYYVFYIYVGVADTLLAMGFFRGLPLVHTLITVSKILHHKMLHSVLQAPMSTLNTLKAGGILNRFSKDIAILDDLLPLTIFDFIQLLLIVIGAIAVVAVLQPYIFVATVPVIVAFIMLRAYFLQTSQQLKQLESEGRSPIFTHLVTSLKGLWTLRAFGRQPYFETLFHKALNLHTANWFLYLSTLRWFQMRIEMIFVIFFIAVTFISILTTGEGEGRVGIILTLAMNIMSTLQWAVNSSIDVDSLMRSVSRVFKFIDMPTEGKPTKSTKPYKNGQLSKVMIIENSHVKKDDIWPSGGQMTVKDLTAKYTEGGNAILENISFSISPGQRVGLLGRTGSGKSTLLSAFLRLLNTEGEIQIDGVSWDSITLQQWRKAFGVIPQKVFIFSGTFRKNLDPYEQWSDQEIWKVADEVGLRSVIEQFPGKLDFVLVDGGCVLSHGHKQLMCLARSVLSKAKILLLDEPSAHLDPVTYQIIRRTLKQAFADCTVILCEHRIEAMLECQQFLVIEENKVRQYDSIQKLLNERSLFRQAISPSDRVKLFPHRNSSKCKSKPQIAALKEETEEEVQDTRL
Experiment: CFTR cell surface levels using HRP-tagged ΔF508-CFTR expressing CFBE cells, intrinsic corrector capacity
Assay type: cell-based
Conditions: HRP-tagged ΔF508-CFTR CFBE41o- cells, compounds alone (intrinsic corrector capacity), 20 hours at 33° C.; positive control 3 μM corrector
Attribute measured: % Activation
Please make sure the unit comes right after the number.

Recorded results for 5 molecules are shown here.
Molecule | % Activation
COc1cccc(-n2nc(C)c3c(-c4ccc(N5CCOCC5)cc4)cc(C(=O)O)nc32)c1 | 103.72%
COCCC1(COc2cc(C(=O)O)nc3c2c(C)nn3-c2ccccc2)CC1 | 50.555%
Cc1nn(-c2ccccc2)c2nc(C(=O)O)cc(-c3ccc(N4CC(N(C)C)C4)cc3)c12 | 91.87%
CC(C)c1nn(-c2cccc(N(C)C)c2)c2nc(C(=O)O)cc(N3CCC(CO)CC3)c12 | 311.73%
Cc1nn(-c2ccccc2)c2nc(C(=O)O)cc(-c3cnc(N4CCOCC4)nc3)c12 | 98.68%

For every item in the list below, what is its measured % Activation?
1. CC(C)(CO)c1nn(-c2ccccc2)c2nc(C(=O)O)cc(-c3ccc(N4CCOCC4)cc3)c12
2. CC(C)c1nn(-c2cccc(N3CCC3)c2)c2nc(C(=O)O)cc(-c3ccc(N(C)C4CCOCC4)cc3)c12

OUT:
1: 53.1%; 2: 380.6%

For every item in the list below, what is its measured % Activation?
1. COCC1CCN(c2cc(C(=O)O)nc3c2c(C(C)C)nn3-c2cccc(N(C)C)c2)CC1
2. Cc1nn(-c2ccccc2)c2nc(C(=O)O)cc(-c3ccc(NC4CCOCC4)cc3)c12
3. CC(C)c1nn(-c2ccc(F)c(F)c2)c2nc(C(=O)O)cc(-c3ccc(N(C)C4CCOCC4)cc3)c12
4. Cc1nn(C2CCCC2)c2nc(C(=O)O)cc(-c3ccc(N4CCOCC4)nc3)c12
5. Cc1nn(-c2ccccc2)c2nc(C(=O)O)cc(-c3ccc(N4CCC(O)C4)cc3)c12 (stereo not shown)

OUT:
357.3%
190.2%
259.1%
73%
198.45%

For every item in the list below, what is its measured % Activation?
1. Cc1nn(-c2ccccc2)c2nc(C(=O)O)cc(N3CCC4(CC3)CN(C)C(=O)CO4)c12
2. CC(C)c1nn(-c2cccc(N3CCOCC3)c2)c2nc(C(=O)O)cc(-c3cnc(N4CCC(C#N)CC4)nc3)c12
3. CC(=O)N1CC2CN(c3cc(C(=O)O)nc4c3c(C(C)C)nn4-c3cccc(C)c3)CC2C1 (stereo not shown)
4. CO[C@@H]1CCN(c2cc(C(=O)O)nc3c2c(C)nn3-c2ccccc2)C1

OUT:
20.49%
402.1%
72.33%
46.475%

====

Target: ΔF508-CFTR (Homo sapiens, UniProt P13569, DEL508-508)
Construct: host or cells: CFBE41o-, doxycycline-inducible
Test: CFTR cell surface levels using HRP-tagged ΔF508-CFTR expressing CFBE cells, intrinsic corrector capacity
Type: cell-based
Conditions: HRP-tagged ΔF508-CFTR expressing CFBE cells; intrinsic corrector capacity (no co-corrector); 33° C., 20 hours; read-out: EC50
Please provide measured EC50 for the entries that follow.
Give bare numbers, in nM.

Molecule | System name | Measure unit | EC50
COC(C)(C)C1CCN(c2cc(C(=O)O)nc3c2c(C2CCC2)nn3-c2ccccc2)CC1 | ΔF508-CFTR (Homo sapiens, UniProt P13569, DEL508-508) | nM | 82.1
O=C(O)c1cc(N2CCC(N3CCCC3)CC2)c2c(C3CCC3)nn(-c3ccccc3)c2n1 | ΔF508-CFTR (Homo sapiens, UniProt P13569, DEL508-508) | nM | 2300

For every item in the list below, what is its measured EC50?
1. CN1CCC[C@H](Oc2cc(C(=O)O)nc3c2c(C2CCC2)nn3-c2ccccc2)C1
2. COc1cc(-n2nc(C3CCC3)c3c(N4CCC(N5CCOCC5)CC4)cc(C(=O)O)nc32)ccc1F

OUT:
1: 3280; 2: 256
